B1: DLC1 (parent)
chain: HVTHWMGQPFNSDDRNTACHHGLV

variants of: B1; assay: protein stability index of a GFP-peptide fusion (GPS, HEK-293T) (PSI 1-6); higher = more stable; details: c terminus: a fixed tail appended;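 note: lentivirally expressed fusions sorted by FACS into six bins by GFP to DsRed ratio, PSI derived from sequencing read proportions per bin multiplied by bin number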
Kindly return rule met if reported protein stability index is no lower than 2; return rule not met if it is lower.

[[record]]
variant_name = "P9W"
classification = "rule not met"

[[record]]
variant_name = "H4P"
classification = "rule met"

[[record]]
variant_name = "S12K"
classification = "rule met"

[[record]]
variant_name = "D14I"
classification = "rule not met"

[[record]]
variant_name = "H4W"
classification = "rule not met"

[[record]]
variant_name = "A18S"
classification = "rule met"

[[record]]
variant_name = "P9H"
classification = "rule met"

[[record]]
variant_name = "H21Y"
classification = "rule not met"

[[record]]
variant_name = "N16A"
classification = "rule not met"

[[record]]
variant_name = "H20T"
classification = "rule met"

[[record]]
variant_name = "T3C"
classification = "rule not met"

[[record]]
variant_name = "N11F"
classification = "rule not met"

[[record]]
variant_name = "F10R"
classification = "rule met"

[[record]]
variant_name = "H21R"
classification = "rule met"

[[record]]
variant_name = "Q8H"
classification = "rule met"

[[record]]
variant_name = "G22T"
classification = "rule met"

[[record]]
variant_name = "S12L"
classification = "rule met"

[[record]]
variant_name = "D14K"
classification = "rule not met"

[[record]]
variant_name = "W5N"
classification = "rule met"

[[record]]
variant_name = "V2E"
classification = "rule met"

[[record]]
variant_name = "N11K"
classification = "rule not met"

[[record]]
variant_name = "M6V"
classification = "rule met"

[[record]]
variant_name = "N16L"
classification = "rule not met"

[[record]]
variant_name = "S12C"
classification = "rule not met"

[[record]]
variant_name = "D14L"
classification = "rule not met"

[[record]]
variant_name = "N16P"
classification = "rule not met"

[[record]]
variant_name = "C19T"
classification = "rule met"

[[record]]
variant_name = "A18F"
classification = "rule met"

[[record]]
variant_name = "G7K"
classification = "rule not met"

[[record]]
variant_name = "H4M"
classification = "rule met"

[[record]]
variant_name = "N16F"
classification = "rule not met"

[[record]]
variant_name = "T17W"
classification = "rule not met"

[[record]]
variant_name = "H1A"
classification = "rule met"

[[record]]
variant_name = "P9K"
classification = "rule not met"

[[record]]
variant_name = "V2C"
classification = "rule met"

[[record]]
variant_name = "F10A"
classification = "rule met"

[[record]]
variant_name = "V24Q"
classification = "rule met"

[[record]]
variant_name = "M6I"
classification = "rule met"

[[record]]
variant_name = "G7S"
classification = "rule not met"

[[record]]
variant_name = "N11G"
classification = "rule met"

